# maps each entry to its GI50
# Tested on: NCI-H522
# protocol_text: NCI tumour cell line growth inhibition, 48 h
The source made the active and inactive calls. Rule as the data show it: active = GI50 up to about 1.1 µM and inactive = higher.
reported_property: GI50

In [3]: df
Out[3]:
                           structure_smiles      reported_result
0  CCOC(=O)/C=C/[C@H](O)[C@@H](O)/C=C/C(=O)OCC   20.7 µM (inactive)
1                C[N+]1(C)CC=C(N2CCOCC2)CC1   > 10 µM (inactive)
2  O=C1[C@H]2C(c3ccccc3)=NN(C(=O)c3ccccc3)[C@H]2C(=O)N1c1ccccc1  > 100 µM (inactive)
3  C[C@H](CN1CC(=O)NC(=O)C1)N1CC(=O)NC(=O)C1   20.8 µM (inactive)
4           Nc1c(Cl)cc(-c2nc3ccccc3s2)cc1Cl  > 100 µM (inactive)

====

# Tested on: COLO 205
# protocol_text: NCI tumour cell line growth inhibition, 48 h
The source made the active and inactive calls. No stated cut-off is given here; in the data, active = GI50 up to about 1.1 µM and inactive = higher.
Labels: TRUE (active), FALSE (inactive)

compound	assigned_label
CCOC(=O)/C(C(=O)Nc1ccc(F)cc1)=C(/N)N1CCCC1	FALSE
ICC1CCCO1 (centres undefined)	FALSE
Nc1ccc(/N=N/c2ccccc2)cc1	FALSE
S=C(Nc1cccc(Cl)c1)Nc1ccccn1	FALSE
Cc1nc(C)c(N2CCN(CN)CC2)c(O)n1	FALSE
COc1ccc(C2C3=C(COC3=O)Oc3cc4c(cc32)OCO4)cc1 (centres undefined)	FALSE
COc1cc2c[n+]3c4c(c2c(OC)c1OC)CCCC4CC3 (centres undefined)	FALSE
COc1c(C(=O)NCCN(CCNC(=O)c2cccc(-c3cccc(C(=O)N(C)C)c3OC)c2OC)CCNC(=O)c2cccc(-c3cccc(C(=O)N(C)C)c3OC)c2OC)cccc1-c1cccc(C(=O)N(C)C)c1OC	FALSE
CC[C@](O)(CC(=O)O[C@H]1C(=O)O[C@@H]2C[C@H]3C(C)=CC(=O)[C@@H](O)[C@]3(C)[C@H]3[C@@]4(O)OC[C@]32[C@@H]1[C@@H](C)[C@H]4O)C(C)C	TRUE
CC(Cl)CN1c2ccccc2Sc2ccc(Cl)cc21 (centres undefined)	FALSE
CCCCCCCCP(=O)(O)OP(=O)(O)OCC1OC(n2ccc(N)nc2=O)C(O)C1O (centres undefined)	FALSE
CC1=C(C(=O)NNS(=O)(=O)c2ccc(C)cc2)CC(C(=O)NNS(=O)(=O)c2ccc(C)cc2)=C(C)N1	FALSE
Clc1ccc(Nc2nnc(CCCCCCCCc3nnc(Nc4ccc(Cl)cc4)o3)o2)cc1	FALSE
CN1C(=O)N(C)C(O)C(Cl)(Br)C1=O (centres undefined)	FALSE

====

# Test system: 786-0
# protocol_text: NCI tumour cell line growth inhibition, 48 h
Active and inactive are the calls of the source. Cut-off read from the data, not from the text of the source: active = GI50 up to about 1.1 µM and inactive = higher.

compound	GI50
O=c1c2ncn(CCCl)c2n(-c2ccccc2)c(=S)n1-c1ccccc1	> 100 µM (inactive)
CCOC(=O)Cn1c(=O)c2nc(SC)sc2n(-c2ccc(C)cc2)c1=S	18.1 µM (inactive)
CCOC(=O)c1csc(-c2cn(C)c3c2C(=O)C(OC)=CC3=O)n1	> 100 µM (inactive)
O=C1OC(/C=C/c2ccccc2)C(=O)C1=O (stereo unspecified)	> 100 µM (inactive)
CCCc1nc(Cl)c(Cl)c(Cl)n1	19.9 µM (inactive)
Cc1c(N)nc([C@H](CC(N)=O)NC[C@H](N)C(N)=O)nc1C(=O)N[C@H](C(=O)N[C@H](C)[C@@H](O)[C@H](C)C(=O)N[C@H](C(=O)NCCc1nc(-c2nc(C(=O)NCCC[S+](C)C)cs2)cs1)[C@@H](C)O)C(OC1OC(CO)C(O)C(O)C1OC1OC(CO)C(O)C(OC(N)=O)C1O)c1c[nH]cn1 (stereo partly specified)	1.05 µM (active)

====

# System: SK-MEL-5
# protocol_text: NCI tumour cell line growth inhibition, 48 h
Activity calls are given as the source filed them. Cut-off read from the data, not from the text of the source: active = GI50 up to about 1.1 µM and inactive = higher.
Listing: GI50 of selected compounds
reported_property: GI50

In [3]: df
Out[3]:
                                   compound  reported_property      reported_result
0         Nc1nc(O)c([I+]c2ccccc2)c(=O)[nH]1               GI50  > 100 µM (inactive)
1      CCn1c2c(c3ccccc3c1=O)C(=O)c1ccccc1-2               GI50   50.1 µM (inactive)
2  COc1ccc2c(c1)CCC1=CC3(CCC12C)SCCS3 (stereo not drawn)               GI50   6.93 µM (inactive)

====

# Tested on: 786-0
# protocol_text: NCI tumour cell line growth inhibition, 48 h
The source made the active and inactive calls. Cut-off read from the data, not from the text of the source: active = GI50 up to about 1.1 µM and inactive = higher.
Classes used: Y for active, N for inactive

molecule	assigned_label
CC1(C)CC(=O)C(Cc2ccccc2)(Cc2ccccc2)C(=O)C1	N
O=C1CCCSCCCC(=O)CCCSCCC1	N
Oc1cccc(-c2nc3cc(F)ccc3s2)c1	N
NC(=O)NNc1nc2ccccc2c(=O)n1NC(=O)C(=O)Nc1ccc(Cl)cc1Cl	N
Cc1cc(N(CCC#N)CCC#N)ccc1/N=N/c1cccc(Cl)c1	N
CC(Br)C(=O)c1ccc2cc(Br)c3ccccc3c2c1 (stereo unspecified)	N
CC(=O)/C(=C\c1ccccc1)C(=O)Nc1ccccc1	N
COc1ccc2[nH]c3c(C)c4ccnc(NCCCN(C)CCCNc5ccc6nnn7c8ccccc8c(=O)c5c67)c4c(C)c3c2c1	Y
Fc1sc2c(c1F)C1CCC2C1 (stereo unspecified)	N
Clc1cccc(-c2nc3cccc4c3n2Cc2ncccc2-4)c1	N
Cc1c2c3ccccc3nc-2n(C)c2ccccc12	N
CC12CCC(C/C1=N\NC(N)=O)C2(C)C (stereo unspecified)	N
CN(C)CC1CCC/C(=C\c2ccc(N(C)C)cc2)C1=O (stereo unspecified)	N
CCOC(=O)C1c2[nH]c3ccccc3c2CCN1C(=O)c1ccco1 (stereo unspecified)	N
Cn1c(=O)c(C(c2ccc([N+](=O)[O-])cc2)c2c(O)c3ccccc3n(C)c2=O)cc2ccccc21 (stereo unspecified)	N
O=C(O)CNc1ccc(C(=O)O)cc1	N
O=C1C=CC(=O)c2c(O)ccc(O)c21 [NAPHTHAZALIN]	N
CC[C@](O)(CC(=O)O[C@H]1C(=O)O[C@@H]2C[C@H]3C(C)=CC(=O)[C@@H](O)[C@]3(C)[C@H]3[C@@]4(O)OC[C@]32[C@@H]1[C@@H](C)[C@H]4O)C(C)C	Y
CCN1/C(=C/C#C/C(C)=C\c2sc3ccc(Cl)cc3[n+]2CC)Sc2ccc(Cl)cc21	N
OCc1ccc(-c2ccc(-c3ccc(CO)s3)o2)s1	N
CC(C)=Cc1cc2c(cc1O)CCC1C2CC[C@@]2(C)C1CC[C@@H]2O (stereo partly specified)	N
CCSC1(SCC)CC(Cc2ccc(OC)cc2)N(/C=N/C(C)(C)C)C1 (stereo unspecified)	N
Cc1nc(C)c(Cc2ccccc2)o1	N
O=C1c2ccccc2C(=O)c2c(NCCNC(=O)C3CCCN3)ccc(NCCNC(=O)C3CCCN3)c21 (stereo unspecified)	Y
O=C(/N=N/c1ccc(Cl)cc1Cl)NNc1ccc(Cl)cc1Cl	N
Cc1ccc2c(ccc(/C=C/c3ccc(O)c4ncccc34)[n+]2C)c1	N
CN(C)c1ccc(-c2cc(O)c3ccccc3n2)cc1	N
O=c1[nH]c(=O)c2c([nH]1)[nH]c1ccc(Br)cc12	N
NC(Cc1ccc(OCc2ccccc2)cn1)C(=O)O (stereo unspecified)	N
C/C=C/C1OC(O)(C(C)C(O)[C@H](C)C2OC(=O)/C(OC)=C/C(C)=C/[C@@H](C)[C@@H](O)[C@@H](C)C(O)C(C)C/C(C)=C/C=C/C2OC)C[C@@H](OC2CC(O)C(OC(N)=O)C(C)O2)C1C (stereo partly specified)	Y
CC1(C)OCN(c2ccc(Cl)cc2)Cn2c1nc1ccccc12	N
COc1c(C(=O)NCCN(CCNC(=O)c2cccc(-c3cccc(C(=O)N(C)C)c3OC)c2OC)CCNC(=O)c2cccc(-c3cccc(C(=O)N(C)C)c3OC)c2OC)cccc1-c1cccc(C(=O)N(C)C)c1OC	N
O=C1CCCC2=C1CC1=C(CCCC1=O)N2c1ccc(-c2ccccc2)cc1	N
CNC(=S)N/N=C1\CC(c2ccccc2)Oc2ccccc21 (stereo unspecified)	N
CCOC(=O)c1sc2nc(SC)nc(Nc3ccc4c(c3)OCO4)c2c1N	N
O=C(CC(C(=O)c1ccco1)c1ccsc1)c1ccco1 (stereo unspecified)	N

====

Below, each entry is listed alongside its reported GI50.
# System: COLO 205
# protocol_text: NCI tumour cell line growth inhibition, 48 h
Activity calls are given as the source filed them. Cut-off read from the data, not from the text of the source: active = GI50 up to about 1.1 µM and inactive = higher.
reported_property: GI50

>>> print(df.to_string())
                                   molecule  target_desc  reported_property      reported_result
0  CC12CCC(C/C1=N\NC(N)=O)C2(C)C (stereo unspecified)     COLO 205               GI50  > 100 µM (inactive)
1  CC(=O)OC1CCn2c1nc1cc([N+](=O)[O-])c(C)cc12 (stereo unspecified)     COLO 205               GI50  > 100 µM (inactive)
2  Cc1cc(S(=O)(=O)Nc2nc(N)n(-c3ccccc3)n2)c(S)cc1Cl     COLO 205               GI50  > 100 µM (inactive)
3                  CCOC(=O)C1(C(=O)OCC)CSC1     COLO 205               GI50  > 100 µM (inactive)
4  O=C1[C@H]2C(c3ccccc3)=NN(C(=O)c3ccccc3)[C@H]2C(=O)N1c1ccccc1     COLO 205               GI50  > 100 µM (inactive)
5  C=CCC1(CN(C)C)CC/C(=C\c2cc(OC)c(OC)c(OC)c2)C1=O (stereo unspecified)     COLO 205               GI50     17 µM (inactive)
